- system-name: recombinant human LTA4 hydrolase (rhLTA4H) (Homo sapiens, UniProt P09960)
- Construct: made in house; host or cells: Spodoptera frugiperda (Sf-9) cells, baculovirus (pFastBac1)
- Sequence (P09960 whole entry): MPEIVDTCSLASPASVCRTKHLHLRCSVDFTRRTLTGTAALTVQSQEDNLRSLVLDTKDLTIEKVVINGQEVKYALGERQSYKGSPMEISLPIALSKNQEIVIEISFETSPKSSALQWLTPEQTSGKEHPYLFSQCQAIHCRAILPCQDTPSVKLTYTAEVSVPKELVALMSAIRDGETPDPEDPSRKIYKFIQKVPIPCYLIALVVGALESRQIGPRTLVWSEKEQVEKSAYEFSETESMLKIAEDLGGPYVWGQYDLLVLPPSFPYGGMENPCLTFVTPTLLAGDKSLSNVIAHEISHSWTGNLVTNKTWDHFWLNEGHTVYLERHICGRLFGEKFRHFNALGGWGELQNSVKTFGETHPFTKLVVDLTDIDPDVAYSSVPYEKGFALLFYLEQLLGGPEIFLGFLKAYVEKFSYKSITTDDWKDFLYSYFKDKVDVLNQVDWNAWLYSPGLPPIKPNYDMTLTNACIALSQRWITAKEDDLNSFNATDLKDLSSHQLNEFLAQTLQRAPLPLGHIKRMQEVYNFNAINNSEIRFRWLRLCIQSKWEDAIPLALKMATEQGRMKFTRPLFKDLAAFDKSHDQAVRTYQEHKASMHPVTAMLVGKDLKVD
- assay-text: Recombinant human LTA4 hydrolase assay for LTA4 hydrolase inhibitor activity
- Type: biochemical
- condition-details: rhLTA4H, LTB4 by immunoassay; single determination or average of two or more; mark after value = form tested: ′ free base, ″ hydrochloride, ^ formate; read-out: IC50
Structures can show the parent of a compound that is named as a salt.
measure-name: pIC50
// pIC50 is dimensionless: -log10 of concentration (M)

Lab note: need pIC50 for O=C(O)CC1CCN(Cc2c[nH]c3cc(Oc4nc5ccccc5s4)ccc23)CC1 on recombinant human LTA4 hydrolase (rhLTA4H) (Homo sapiens, UniProt P09960), anyone have it? 7.82

Lab note: need pIC50 for OC1(c2ccc(Cl)cc2)CCN(Cc2coc3cc(Oc4nc5ncccc5s4)ccc23)CC1 on recombinant human LTA4 hydrolase (rhLTA4H) (Homo sapiens, UniProt P09960), anyone have it? 7.62

Lab note: need pIC50 for NC(=O)C1CCN(CCc2c[nH]c3ccc(Oc4nc5ccccc5s4)cc23)CC1 on recombinant human LTA4 hydrolase (rhLTA4H) (Homo sapiens, UniProt P09960), anyone have it? 6.15

Lab note: need pIC50 for O=C(c1coc2cc(Oc3nc4ncccc4s3)ccc12)N1CCC(N2CCCC2=O)CC1 on recombinant human LTA4 hydrolase (rhLTA4H) (Homo sapiens, UniProt P09960), anyone have it? 8.05

Lab note: need pIC50 for CC(=O)N1C[C@@H]2CC[C@H]1CN2Cc1cc2ncc(Oc3nc4ncccc4s3)cc2o1 [Example 339, formate] on recombinant human LTA4 hydrolase (rhLTA4H) (Homo sapiens, UniProt P09960), anyone have it? 7.92

Lab note: need pIC50 for NC(=O)N[C@H]1C[C@H]2CC[C@@H](C1)N2Cc1cc2ccc(Oc3nc4ncccc4s3)cc2o1 on recombinant human LTA4 hydrolase (rhLTA4H) (Homo sapiens, UniProt P09960), anyone have it? 8.05

----------
- system-name: recombinant human LTA4 hydrolase (rhLTA4H) (Homo sapiens)
- Construct: made in house; host or cells: Spodoptera frugiperda (Sf-9) cells, baculovirus (pFastBac1)
- assay-text: Recombinant human LTA4 hydrolase assay for LTA4 hydrolase inhibitor activity
- Assay type: biochemical
- condition-details: rhLTA4H, LTB4 by immunoassay; single determination or average of two or more; mark after value = form tested: ′ free base, ″ hydrochloride, ^ formate; read-out: IC50
Where a name gives a salt, the structure may show the parent alone.
Would you mind telling me the reported IC50 of each entry?
State just the number; it will be interpreted in nM.

Lab note: need IC50 for CC(C)CN1CCN(Cc2coc3cc(Oc4nc5ncccc5s4)ccc23)CC1 [Example 308, formate] on recombinant human LTA4 hydrolase (rhLTA4H) (Homo sapiens), anyone have it? 9

Lab note: need IC50 for O=C(c1coc2cc(Oc3nc4ncccc4s3)ccc12)N1CCC(F)CC1 [Example 376] on recombinant human LTA4 hydrolase (rhLTA4H) (Homo sapiens), anyone have it? 13

Lab note: need IC50 for c1ccc2c(c1)CC(NCc1coc3cc(Oc4nc5ncccc5s4)ccc13)C2 [Example 320, formate] on recombinant human LTA4 hydrolase (rhLTA4H) (Homo sapiens), anyone have it? 15

Lab note: need IC50 for F[C@@H]1CCN(Cc2coc3cc(Oc4nc5ncccc5s4)ccc23)C1 [Example 328] on recombinant human LTA4 hydrolase (rhLTA4H) (Homo sapiens), anyone have it? 12

Lab note: need IC50 for O=C(c1ccno1)N1C[C@@H]2C[C@H]1CN2Cc1coc2cc(Oc3nc4ncccc4s3)ccc12 [Example 358] on recombinant human LTA4 hydrolase (rhLTA4H) (Homo sapiens), anyone have it? 9

Lab note: need IC50 for CC(=O)N1[C@@H]2CC[C@H]1C[C@H](NCc1coc3cc(Oc4nc5ncccc5s4)ccc13)C2 [Example 333] on recombinant human LTA4 hydrolase (rhLTA4H) (Homo sapiens), anyone have it? 6

Lab note: need IC50 for CC(=O)N[C@H]1CCN(Cc2coc3cc(Oc4nc5ncccc5s4)ccc23)C1 [Example 310] on recombinant human LTA4 hydrolase (rhLTA4H) (Homo sapiens), anyone have it? 13

Lab note: need IC50 for CN(Cc1ccncc1)Cc1coc2cc(Oc3nc4ncccc4s3)ccc12 [Example 177] on recombinant human LTA4 hydrolase (rhLTA4H) (Homo sapiens), anyone have it? 13

Lab note: need IC50 for OC1CCN(Cc2coc3cc(Oc4nc5ncccc5s4)ccc23)CC1 [Example 268] on recombinant human LTA4 hydrolase (rhLTA4H) (Homo sapiens), anyone have it? 8

Lab note: need IC50 for O=C(O)C1CCN(Cc2c[nH]c3cc(Oc4nc5ccccc5s4)ccc23)CC1 [Example 45] on recombinant human LTA4 hydrolase (rhLTA4H) (Homo sapiens), anyone have it? 6
